Reported pEC50 by item:
- SYSTEM UNDER TEST: human β3 adrenergic receptor (Homo sapiens)
- Construct: stably transfected with the cloned β-adrenergic receptor (β1, β2 or β3); expressed in transfected cells; host or cells: Chinese hamster ovary (CHO) cells, stably transfected
- ASSAY DETAILS: Functional assay: cAMP production (LANCE TR-FRET) in CHO cells stably transfected with cloned β3 adrenergic receptor
- Type: cell-based
- CONDITION: Table 2; cAMP production, CHO cells expressing human β3 AR; read-out: Human β3 functional
pEC50: −log10 of the molar value.

O=C(Cc1c(-c2ccccc2)[nH]c2ccccc12)Nc1ccc(CC2CC[C@H]([C@H](O)c3cccnc3)N2)cc1 (stereo partly shown)    7.00 to 7.96
O=C(Cn1ncc2ccccc21)Nc1ccc(CC2CC[C@H]([C@H](O)c3cccnc3)N2)cc1 (stereo partly shown)    7.00 to 7.96
O=C(Cc1c(F)cccc1F)Nc1ccc(CC2CC[C@H]([C@H](O)c3cccnc3)N2)cc1 (stereo partly shown)    8.00 to 9.00

Challenge: Field request: pEC50 | item: O=C(Cc1cncnc1O)Nc1ccc(CC2CC[C@H]([C@H](O)c3cccnc3)N2)cc1 (stereo partly shown)
Response given: 7.00 to 7.96

====

- SYSTEM UNDER TEST: human β3 adrenergic receptor (Homo sapiens, UniProt P13945)
- Construct: stably transfected with the cloned β-adrenergic receptor (β1, β2 or β3); expressed in transfected cells; host or cells: Chinese hamster ovary (CHO) cells, stably transfected
- Sequence (P13945 whole entry): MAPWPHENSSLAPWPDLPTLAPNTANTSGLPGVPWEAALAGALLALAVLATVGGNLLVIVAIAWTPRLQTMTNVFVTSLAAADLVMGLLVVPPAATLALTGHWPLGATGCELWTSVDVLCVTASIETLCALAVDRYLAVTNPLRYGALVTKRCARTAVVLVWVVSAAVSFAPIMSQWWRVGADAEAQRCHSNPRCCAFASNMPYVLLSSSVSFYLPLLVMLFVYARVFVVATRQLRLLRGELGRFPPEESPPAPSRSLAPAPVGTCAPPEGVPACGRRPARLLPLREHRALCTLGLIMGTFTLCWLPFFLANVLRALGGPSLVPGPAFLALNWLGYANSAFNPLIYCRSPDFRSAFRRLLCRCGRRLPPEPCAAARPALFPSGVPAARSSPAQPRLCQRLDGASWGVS
- ASSAY DETAILS: Functional assay: cAMP production (LANCE TR-FRET) in CHO cells stably transfected with cloned β3 adrenergic receptor
- Assay type: cell-based
- CONDITION: Table 3; cAMP production, CHO cells expressing human β3 AR; read-out: Human β3 functional
- Procedure: Functional Assay: cAMP production in response to ligand is measured according to Barton, et al. (1991, Agonist-induced desensitization of D2 dopamine receptors in human Y-79 retinoblastoma cells. Mol. Pharmacal. v3229:650-658) modified as follows, cAMP production is measured using a homogenous time-resolved fluorescence resonance energy transfer immunoassay (LANCE™, Perkin Elmer) according to the manufacture's instructions. […]
pEC50: −log10 of the molar value.
VALUE KIND: pEC50

Below are worked cases with known answers.
COC(=O)c1cnnn1C(C)C(=O)Nc1ccc(CC2CC[C@H]([C@H](O)c3cccnc3)N2)cc1 (single isomer, unassigned) [Example 208]    8.00 to 9.00
CC(C(=O)Nc1ccc(CC2CC[C@H]([C@H](O)c3cccnc3)N2)cc1)n1nncc1C(=O)O (single isomer, unassigned) [Example 206]    8.00 to 9.00

Challenge: Field request: pEC50 | item: CCCC(C(=O)Nc1ccc(CC2CC[C@H]([C@H](O)c3cccnc3)N2)cc1)c1cnc(N)s1 (single isomer, unassigned) [Example 109]
Response given: 8.00 to 9.00

Challenge: Field request: pEC50 | item: O=C(Nc1ccc(CC2CC[C@H]([C@H](O)c3cccnc3)N2)cc1)C1CCc2nc3ccccc3c(=O)n21 (single isomer, unassigned) [Example 193]
Response given: 8.00 to 9.00

Challenge: Field request: pEC50 | item: CC(C(=O)Nc1ccc(C[C@@H]2CC[C@H]([C@H](O)c3cccnc3)N2)cc1)n1ncccc1=O (single isomer, unassigned) [Example 163]
Response given: 8.00 to 9.00

Challenge: Field request: pEC50 | item: Cc1nc2c(s1)CCC2(C)C(=O)Nc1ccc(CC2CC[C@H]([C@H](O)c3cccnc3)N2)cc1 (single isomer, unassigned) [Example 130]
Response given: 6.00 to 7.00

Challenge: Field request: pEC50 | item: CC(C(=O)Nc1ccc(CC2CC[C@H]([C@H](O)c3cccnc3)N2)cc1)n1cccn1 (single isomer, unassigned) [Example 98]
Response given: 7.00 to 7.96

Challenge: Field request: pEC50 | item: O=C(Nc1ccc(CC2CC[C@H]([C@H](O)c3cccnc3)N2)cc1)C1CCc2cccnc21 (single isomer, unassigned) [Example 127]
Response given: 8.00 to 9.00

Challenge: Field request: pEC50 | item: O=C(Nc1ccc(CC2CC[C@H]([C@H](O)c3cccnc3)N2)cc1)C1CCc2nc3ccccc3c(=O)n21 (single isomer, unassigned) [Example 192]
Response given: 7.00 to 7.96

Challenge: Field request: pEC50 | item: O=C(Nc1ccc(CC2CC[C@H]([C@H](O)c3cccnc3)N2)cc1)[C@@H]1CCc2ncnn21 (single isomer, unassigned) [Example 194]
Response given: 7.00 to 7.96

Challenge: Field request: pEC50 | item: CC(C(=O)Nc1ccc(CC2CC[C@H]([C@H](O)c3cccnc3)N2)cc1)n1ccc(C(N)=O)n1 (single isomer, unassigned) [Example 202]
Response given: 8.00 to 9.00

Challenge: Field request: pEC50 | item: Cc1nc(C(C)C(=O)Nc2ccc(CC3CC[C@H]([C@H](O)c4cccnc4)N3)cc2)cs1 (single isomer, unassigned) [Example 101]
Response given: 8.00 to 9.00

Challenge: Field request: pEC50 | item: Cc1nc(C(C)C(=O)Nc2ccc(CC3CC[C@H]([C@H](O)c4cccnc4)N3)cc2)c(C)s1 (single isomer, unassigned) [Example 103]
Response given: 6.00 to 7.00

Challenge: Field request: pEC50 | item: Cc1nnc2n1CCC2C(=O)Nc1ccc(CC2CC[C@H]([C@H](O)c3cccnc3)N2)cc1 (single isomer, unassigned) [Example 171]
Response given: 7.00 to 7.96

Challenge: Field request: pEC50 | item: O=C(Nc1ccc(CC2CC[C@H]([C@H](O)c3cccnc3)N2)cc1)C1CCc2sc(Br)nc21 (single isomer, unassigned) [Example 159]
Response given: 7.00 to 7.96

Challenge: Field request: pEC50 | item: CC(C(=O)Nc1ccc(CC2CC[C@H]([C@H](O)c3cccnc3)N2)cc1)n1nccn1 (single isomer, unassigned) [Example 142]
Response given: 8.00 to 9.00

Challenge: Field request: pEC50 | item: O=C(Nc1ccc(CC2CC[C@H]([C@H](O)c3cccnc3)N2)cc1)C1CCc2nccc(=O)n21 (single isomer, unassigned) [Example 160]
Response given: 8.00 to 9.00

Challenge: Field request: pEC50 | item: Cc1nc2c(s1)CCCC2C(=O)Nc1ccc(CC2CC[C@H]([C@H](O)c3cccnc3)N2)cc1 (single isomer, unassigned) [Example 134]
Response given: 7.00 to 7.96

Challenge: Field request: pEC50 | item: CCC(C(=O)Nc1ccc(CC2CC[C@H]([C@H](O)c3cccnc3)N2)cc1)n1cccn1 (single isomer, unassigned) [Example 185]
Response given: 8.00 to 9.00

====

Reported pEC50 by item:
- SYSTEM UNDER TEST: human β3 adrenergic receptor (Homo sapiens, UniProt P13945)
- Construct: stably transfected with the cloned β-adrenergic receptor (β1, β2 or β3); expressed in transfected cells; host or cells: Chinese hamster ovary (CHO) cells, stably transfected
- ASSAY DETAILS: Functional assay: cAMP production (LANCE TR-FRET) in CHO cells stably transfected with cloned β3 adrenergic receptor
- Format: cell-based
- CONDITION: Table 2; cAMP production, CHO cells expressing human β3 AR; read-out: Human β3 functional
pEC50: −log10 of the molar value.

Below are worked cases with known answers.
Nc1ncn(CC(=O)Nc2ccc(CC3CC[C@H]([C@H](O)c4cccnc4)N3)cc2)n1 (stereo partly shown)    8.00 to 9.00
Cc1sc2ncn(CC(=O)Nc3ccc(CC4CC[C@H]([C@H](O)c5cccnc5)N4)cc3)c(=O)c2c1C (stereo partly shown)    8.00 to 9.00
Nc1ncncc1CC(=O)Nc1ccc(CC2CC[C@H]([C@H](O)c3cccnc3)N2)cc1 (stereo partly shown)    7.00 to 7.96
O=C(Cn1c(=O)ncc2ccccc21)Nc1ccc(CC2CC[C@H]([C@H](O)c3cccnc3)N2)cc1 (stereo partly shown)    8.00 to 9.00
CC1=NN(CC(=O)Nc2ccc(CC3CC[C@H]([C@H](O)c4cccnc4)N3)cc2)C(=O)C1 (stereo partly shown)    7.00 to 7.96

Challenge: Field request: pEC50 | item: Cc1nn(CC(=O)Nc2ccc(CC3CC[C@H]([C@H](O)c4cccnc4)N3)cc2)c(=O)c2ccccc12 (stereo partly shown)
Response given: 8.00 to 9.00

Challenge: Field request: pEC50 | item: O=C(Nc1ccc(CC2CC[C@H]([C@H](O)c3cccnc3)N2)cc1)c1ccccc1-c1nc2ccccc2s1 (stereo partly shown)
Response given: 7.00 to 7.96

====

Reported pEC50 by item:
- SYSTEM UNDER TEST: human β3 adrenergic receptor (Homo sapiens, UniProt P13945)
- Construct: stably transfected with the cloned β-adrenergic receptor (β1, β2 or β3); expressed in transfected cells; host or cells: Chinese hamster ovary (CHO) cells, stably transfected
- ASSAY DETAILS: Functional assay: cAMP production (LANCE TR-FRET) in CHO cells stably transfected with cloned β3 adrenergic receptor
- Type: cell-based
- CONDITION: cAMP production, CHO cells expressing human β3 AR; read-out: human Beta-3 agonist functional activity
pEC50: −log10 of the molar value. Counter-ions that a name gives are not always drawn.

C[C@H](NC(=O)c1ccccc1F)C(=O)Nc1ccc(C[C@@H]2CC[C@H]([C@H](O)c3cccnc3)N2)cc1    > 9.00
O=S(=O)(Nc1ccc(C[C@@H]2CC[C@H]([C@H](O)c3cccnc3)N2)cc1)c1ccc(-c2nc(-c3ccc(C(F)(F)F)cc3)cs2)cc1 [Example 222, trifluoroacetic acid salt]    > 8.00
O=C(Nc1ccc(C[C@@H]2CC[C@H]([C@H](O)c3cncc(F)c3)N2)cc1)[C@@H]1CCc2scnc21 [Example 262, trifluoroacetic acid salt]    > 8.00
CCCCCCNC(=O)Nc1ccc(S(=O)(=O)Nc2ccc(C[C@@H]3CC[C@H]([C@H](O)c4cccnc4)N3)cc2)cc1 [Example 239, trifluoroacetic acid salt]    > 8.00
C[C@H](C(=O)Nc1ccc(C[C@@H]2CC[C@H]([C@H](O)c3cccnc3)N2)cc1)c1ccccn1 (single isomer, unassigned) [Example 93, trifluoroacetic acid salt]    > 7.00

Challenge: Field request: pEC50 | item: O=C(Nc1ccc(CC2CCC(C(O)c3cccnc3)N2)cc1Br)C1CCc2sc(Br)nc21 (single isomer, unassigned) [Example 240]
Response given: > 6.00

Challenge: Field request: pEC50 | item: C[C@@H](C(=O)Nc1ccc(C[C@@H]2CC[C@H]([C@H](O)c3cccnc3)N2)cc1)c1ccccn1 (single isomer, unassigned) [Example 94, trifluoroacetic acid salt]
Response given: > 7.00
